B1: LINE1-full (parent)
chain: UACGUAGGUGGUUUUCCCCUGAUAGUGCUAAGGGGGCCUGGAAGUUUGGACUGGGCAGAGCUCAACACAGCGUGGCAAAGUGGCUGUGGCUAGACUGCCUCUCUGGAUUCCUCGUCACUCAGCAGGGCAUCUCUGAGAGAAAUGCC

- Variants of: B1
- ASSAY_NAME: self-cleavage, relative activity (ratio to wild type); higher = more cleavage; in vitro, sequencing; the parent is a self-cleaving ribozyme
Below, each entry is listed alongside its reported self-cleavage.
Simply state the number, no unit and no words.

A77G A141U : 1.89
U1C U62C : 0.12
C18U U85A : 0.13

Task: Please look up its self-cleavage: U14C A94U
Output: 0.29

Task: Same question for A67G U143C please.
Output: 0.57

Task: Same question for U9A A124C please.
Output: 1.74

Task: Same question for G34C A50U please.
Output: 1.81
